experiment: Toxicity on the mouse; settings: in vivo, sc, subcutaneously, read-out: Toxicity (highest survived dose)
readout_label: MTD
Quote the value and follow it with the unit of measurement.

Task: Can you share its MTD? I mean this compound: C=CCN1CCCC1=Nc1ccc(Cl)cc1Cl
Result: 500 mg/kg

====

system: Boophilus microplus, Biarra strain (resistant); experiment: In-vitro test for ovicidal effect on ticks (Biarra strain); conditions: Table 4, concentration giving 50% inhibition, ovicidal only (marked not adulticidal)
Each entry below carries its reported Ovicidal effect: 50% inhibition with the stated concentration of active compound.
Write the figure, then the unit, nothing else.

Recorded results for 5 compounds are shown here.
- smiles_data: "CC=CCN1CCCC1=Nc1ccc(Cl)cc1Cl"
  result: "0.03 % by weight"
- smiles_data: "CC=CCN1CCCC1=Nc1ccc(Br)cc1CC"
  result: "0.05 % by weight"
- smiles_data: "C=CCN1CCCC1=Nc1ccc(F)cc1Cl"
  result: "0.03 % by weight"
- smiles_data: "C=CCN1CCCC1=Nc1cccc(Cl)c1Cl"
  result: "0.008 % by weight"
- smiles_data: "C=CCN1CCCC1=Nc1ccc(Cl)cc1C"
  result: "0.02 % by weight"

Task: # Ovicidal effect: 50% inhibition with the stated concentration of active compound lookup, item CCCCN1CCCC1=Nc1ccc(F)cc1Cl
Result: 0.01 % by weight

====

// reported Ovicidal effect: 100% inhibition with the stated concentration of active compound per item
System: Boophilus microplus, Biarra strain (resistant)
Test: In-vitro test for ovicidal effect on ticks (Biarra strain)
Details: Table 4, concentration giving 100% inhibition, ovicidal only (marked not adulticidal)
Description: In-vitro Test for Ovicidal Effect on Ticks The emulsion concentrate so obtained is diluted with water to the application concentration desired in each case. After immersion of, in each case, 10 female specimens of the various strains of ticks, the individual ticks are transferred to plastic dishes, the bottom of each of which is covered with a disc of filter paper.
Express the result in % by weight but write the number alone.

Answered examples (2):
- smiles_data: "C=CCN1CCCC1=Nc1cc(Cl)c(Cl)cc1Cl"
  quantity_unit: "% by weight"
  result: 0.03
- smiles_data: "C=CCN1CCCC1=Nc1ccc(Cl)cc1C"
  quantity_unit: "% by weight"
  result: 0.03

Task: Which Ovicidal effect: 100% inhibition with the stated concentration of active compound value belongs to C=CCN1CCCC1=Nc1cccc(Cl)c1Cl ?
Result: 0.01

Task: Similarly, CC=CCN1CCCC1=Nc1ccc(Cl)cc1Cl ?
Result: 0.01

Task: Now the same for CC=CCN1CCCC1=Nc1ccc(Br)cc1CC
Result: 0.1

Task: Same thing, different compound: CCCCN1CCCC1=Nc1ccc(F)cc1Cl
Result: 0.03

Task: One more compound: CCCN1CCCC1=Nc1ccc(F)cc1Cl
Result: 0.1

Task: Next record, please: C=CCN1CCCC1=Nc1ccc(F)cc1Cl
Result: 0.1

Task: Please do the same for C=CCN1CCCC1=Nc1cc(Cl)ccc1Cl as well.
Result: 0.1

====

tested on: Boophilus microplus, Biarra strain (resistant); assay: In-vitro test for ovicidal effect on ticks (Biarra strain); settings: Table 4, concentration giving 50% inhibition, ovicidal only (marked not adulticidal)
readout_label: Ovicidal effect: 50% inhibition with the stated concentration of active compound

Task: # query: Ovicidal effect: 50% inhibition with the stated concentration of active compound of entry CCCN1CCCC1=Nc1ccc(F)cc1Cl
Result: 0.03 % by weight

Task: // query: C=CCN1CCCC1=Nc1cc(Cl)c(Cl)cc1Cl
Result: 0.02 % by weight

Task: Thanks! And C=CCN1CCCC1=Nc1cc(Cl)ccc1Cl ?
Result: 0.03 % by weight
